src = patent US20020051978A1

# Test system: 60 cancer cell lines (NCI 60 cancer cell line series)
# TEST_METHOD_NOTES: NCI-DTP in vitro cancer screen, sulforhodamine B (SRB) growth inhibition, 48 hour exposure
# Assay type: cell-based, human
# CONDITION_NOTES: Melanoma M14 (CL10014)
Structures can show the parent of a compound that is named as a salt.
OUTCOME_MEASURE: classification of cell line as Low(1), Medium(2) or High(3) sensitivity to compound
Give the value as a plain number.

// known answers, use as guide
MOLECULE	OBSERVED
CC[C@]1(O)C[C@H]2CN(CCc3c([nH]c4ccccc34)[C@@](C(=O)OC)(c3cc4c(cc3OC)N(C=O)[C@H]3[C@@](O)(C(=O)OC)[C@H](OC(C)=O)[C@]5(CC)C=CCN6CC[C@]43[C@@H]65)C2)C1 [Vincristine sulfate]	2
N.N.[Cl][Pt][Cl] [cisplatin, cis-Diamminedichloroplatinum (II), reference compound]	2

Reported classification of cell line as Low(1), Medium(2) or High(3) sensitivity to compound for NC(=O)NO [Hydroxyurea] : what is it? 2

---

# Tested on: 60 cancer cell lines (NCI 60 cancer cell line series)
# TEST_METHOD_NOTES: NCI-DTP in vitro cancer screen, sulforhodamine B (SRB) growth inhibition, 48 hour exposure
# Type: cell-based, human
# CONDITION_NOTES: Colon HCT-116 (CL4003)
OUTCOME_MEASURE: classification of cell line as Low(1), Medium(2) or High(3) sensitivity to compound

Reported classification of cell line as Low(1), Medium(2) or High(3) sensitivity to compound for O=c1[nH]cc(F)c(=O)[nH]1 [5-Fluorouracil] : what is it? 3

Reported classification of cell line as Low(1), Medium(2) or High(3) sensitivity to compound for CN(Cc1cnc2nc(N)nc(N)c2n1)c1ccc(C(=O)N[C@@H](CCC(=O)O)C(=O)O)cc1 [Methotrexate] : what is it? 3

Reported classification of cell line as Low(1), Medium(2) or High(3) sensitivity to compound for COc1cc([C@@H]2c3cc4c(cc3[C@@H](O[C@@H]3O[C@@H]5CO[C@@H](C)O[C@H]5[C@H](O)[C@H]3O)[C@H]3COC(=O)[C@H]23)OCO4)cc(OC)c1O [Etoposide] : what is it? 2

---

# System: 60 cancer cell lines (NCI 60 cancer cell line series)
# TEST_METHOD_NOTES: NCI-DTP in vitro cancer screen, sulforhodamine B (SRB) growth inhibition, 48 hour exposure
# Assay type: cell-based, human
# Set-up: key: sensitivity class: 1 = Low, 2 = Medium, 3 = High
# CONDITION_NOTES: cell line Ovarian IGROV1, CL6010
Counter-ions that a name gives are not always drawn.
OUTCOME_MEASURE: sensitivity class Ovarian IGROV1 CL6010
Give the value as a plain number.

MOLECULE	OUTCOME_MEASURE	OBSERVED
NC(=O)NO [Hydroxyurea]	sensitivity class Ovarian IGROV1 CL6010	2
COc1cccc2c1C(=O)c1c(O)c3c(c(O)c1C2=O)C[C@@](O)(C(=O)CO)C[C@@H]3O[C@H]1C[C@H](N)C[C@H](C)O1	sensitivity class Ovarian IGROV1 CL6010	2
CC[C@]1(O)C[C@H]2CN(CCc3c([nH]c4ccccc34)[C@@](C(=O)OC)(c3cc4c(cc3OC)N(C=O)[C@H]3[C@@](O)(C(=O)OC)[C@H](OC(C)=O)[C@]5(CC)C=CCN6CC[C@]43[C@@H]65)C2)C1 [Vincristine sulfate]	sensitivity class Ovarian IGROV1 CL6010	3
COc1cccc2c1C(=O)c1c(O)c3c(c(O)c1C2=O)C[C@@](O)(C(C)=O)C[C@@H]3O[C@H]1C[C@H](N)[C@H](O)[C@H](C)O1	sensitivity class Ovarian IGROV1 CL6010	2
Sc1ncnc2nc[nH]c12	sensitivity class Ovarian IGROV1 CL6010	2

Reported sensitivity class Ovarian IGROV1 CL6010 for "COc1cccc2c1C(=O)c1c(O)c3c(c(O)c1C2=O)C[C@@](O)(C(=O)CO)C[C@@H]3O[C@H]1C[C@H](N)[C@H](O)[C@H](C)O1" : what is it? 2

---

# System: 60 cancer cell lines (NCI 60 cancer cell line series)
# TEST_METHOD_NOTES: NCI-DTP in vitro cancer screen, sulforhodamine B (SRB) growth inhibition, 48 hour exposure
# Assay type: cell-based, human
# CONDITION_NOTES: Melanoma M14 (CL10014)
The entries below come with measured classification of cell line as Low(1), Medium(2) or High(3) sensitivity to compound values attached.

// known answers, use as guide
COMPOUND	OBSERVED
COc1cccc2c1C(=O)c1c(O)c3c(c(O)c1C2=O)C[C@@](O)(C(C)=O)C[C@@H]3O[C@H]1C[C@H](N)[C@H](O)[C@H](C)O1	1
Sc1ncnc2nc[nH]c12	3
COc1cc([C@@H]2c3cc4c(cc3[C@@H](O[C@@H]3O[C@@H]5CO[C@@H](c6cccs6)O[C@H]5[C@H](O)[C@H]3O)[C@H]3COC(=O)[C@H]23)OCO4)cc(OC)c1O [Teniposide]	2

Reported classification of cell line as Low(1), Medium(2) or High(3) sensitivity to compound for "O=c1[nH]cc(F)c(=O)[nH]1" : what is it? 2

Reported classification of cell line as Low(1), Medium(2) or High(3) sensitivity to compound for "O=C1c2c(O)ccc(O)c2C(=O)c2c(NCCNCCO)ccc(NCCNCCO)c21" : what is it? 2

Reported classification of cell line as Low(1), Medium(2) or High(3) sensitivity to compound for COc1cc([C@@H]2c3cc4c(cc3[C@@H](O[C@@H]3O[C@@H]5CO[C@@H](C)O[C@H]5[C@H](O)[C@H]3O)[C@H]3COC(=O)[C@H]23)OCO4)cc(OC)c1O [Etoposide] : what is it? 3

Reported classification of cell line as Low(1), Medium(2) or High(3) sensitivity to compound for "OC[C@H]1O[C@@H](n2cnc3c2N=CNC[C@H]3O)C[C@@H]1O" : what is it? 2

---

The entries below come with measured classification of cell line as Low(1), Medium(2) or High(3) sensitivity to compound values attached.
# Tested on: 60 cancer cell lines (NCI 60 cancer cell line series)
# TEST_METHOD_NOTES: NCI-DTP in vitro cancer screen, sulforhodamine B (SRB) growth inhibition, 48 hour exposure
# Assay type: cell-based, human
# CONDITION_NOTES: CNS U251(I) CL12009
# From the text: Cancer Cell Line Preparation. Sixty cancer cell lines were obtained from the National Cancer Institute Developmental Therapeutics Program (NCI-DTP). […] No-drug, no-cell and no-growth controls are included. […] From dose response curves based on the SRB data, various parameters can be determined. […] More precisely, the quantity used in the calculation to be described is the potency measure -log{GI50}. […]
Structures can show the parent of a compound that is named as a salt.
Give the value as a plain number.

// known answers, use as guide
COMPOUND	OBSERVED
COc1cc([C@@H]2c3cc4c(cc3[C@@H](O[C@@H]3O[C@@H]5CO[C@@H](c6cccs6)O[C@H]5[C@H](O)[C@H]3O)[C@H]3COC(=O)[C@H]23)OCO4)cc(OC)c1O [Teniposide]	2
NC(=O)NO [Hydroxyurea]	2
COc1cccc2c1C(=O)c1c(O)c3c(c(O)c1C2=O)C[C@@](O)(C(C)=O)C[C@@H]3O[C@H]1C[C@H](N)[C@H](O)[C@H](C)O1 [Daunorubicin]	2
COc1cccc2c1C(=O)c1c(O)c3c(c(O)c1C2=O)C[C@@](O)(C(=O)CO)C[C@@H]3O[C@H]1C[C@H](N)C[C@H](C)O1 [Deoxydoxorubicin]	2
COc1cccc2c1C(=O)c1c(O)c3c(c(O)c1C2=O)C[C@@](O)(C(=O)CO)C[C@@H]3O[C@H]1C[C@H](N)[C@H](O)[C@H](C)O1 [Adriamycin]	2
CN(Cc1cnc2nc(N)nc(N)c2n1)c1ccc(C(=O)N[C@@H](CCC(=O)O)C(=O)O)cc1 [Methotrexate]	2

Reported classification of cell line as Low(1), Medium(2) or High(3) sensitivity to compound for O=C1c2c(O)ccc(O)c2C(=O)c2c(NCCNCCO)ccc(NCCNCCO)c21 [Mitoxantrone] : what is it? 3

Reported classification of cell line as Low(1), Medium(2) or High(3) sensitivity to compound for CC[C@]1(O)C[C@@H]2CN(CCc3c([nH]c4ccccc34)[C@@](C(=O)OC)(c3cc4c(cc3OC)N(C)[C@H]3[C@@](O)(C(=O)OC)[C@H](OC(C)=O)[C@]5(CC)C=CCN6CC[C@]43[C@@H]65)C2)C1 [Vinblastine sulfate] : what is it? 2

Reported classification of cell line as Low(1), Medium(2) or High(3) sensitivity to compound for COc1cc([C@@H]2c3cc4c(cc3[C@@H](O[C@@H]3O[C@@H]5CO[C@@H](C)O[C@H]5[C@H](O)[C@H]3O)[C@H]3COC(=O)[C@H]23)OCO4)cc(OC)c1O [Etoposide] : what is it? 2

Reported classification of cell line as Low(1), Medium(2) or High(3) sensitivity to compound for Sc1ncnc2nc[nH]c12 [6-mercaptopurine] : what is it? 2

Reported classification of cell line as Low(1), Medium(2) or High(3) sensitivity to compound for CC[C@]1(O)C[C@H]2CN(CCc3c([nH]c4ccccc34)[C@@](C(=O)OC)(c3cc4c(cc3OC)N(C=O)[C@H]3[C@@](O)(C(=O)OC)[C@H](OC(C)=O)[C@]5(CC)C=CCN6CC[C@]43[C@@H]65)C2)C1 [Vincristine sulfate] : what is it? 2

Reported classification of cell line as Low(1), Medium(2) or High(3) sensitivity to compound for O=c1[nH]cc(F)c(=O)[nH]1 [5-Fluorouracil] : what is it? 2

Reported classification of cell line as Low(1), Medium(2) or High(3) sensitivity to compound for N.N.[Cl][Pt][Cl] [cisplatin, cis-Diamminedichloroplatinum (II), reference compound] : what is it? 2
